# Test system: 556581-035-R-J1-PDC complex spheroid growth;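 note: compound exposure lasted 7 days; 100% = DMSO vehicle control growth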
# assay.remarks: Anticancer human tumor 556581-035-R-J1-PDC patient-derived ovarian carcinoma cell line growth inhibition [AhR]
# condition.description: second compound 1 µM; first compound 0.03 µM; active compounds read low
observed.property: viability, T/C (%)
Numbers only here, please. The scale is %.

{"compound": "O=C(C=Cn1cnc(-c2cc(C(F)(F)F)cc(C(F)(F)F)c2)n1)NNc1cnccn1 + CC(CO)NC(=O)c1cc(-c2ccc(Cl)cc2)nn(-c2cnn(C)c2)c1=O", "endpoint.value": 103}
{"compound": "CC(C)CC(NC(=O)C(Cc1ccccc1)NC(=O)c1cnccn1)B(O)O (centres undefined) + Cc1ccccc1N=Nc1ccc(NC(=O)c2ccnn2C)c(C)c1", "endpoint.value": 0.19}
{"compound": "CC(C)CC(NC(=O)C(Cc1ccccc1)NC(=O)c1cnccn1)B(O)O (centres undefined) + Cc1cncc(-c2nc(NCCc3c[nH]c4ccccc34)c3ncn(C(C)C)c3n2)c1", "endpoint.value": 0.14}

Name the recorded viability, T/C for CCN(c1cc(-c2ccc(CN3CCOCC3)cc2)cc(C(=O)NCc2c(C)cc(C)[nH]c2=O)c1C)C1CCOCC1 + Cc1cncc(-c2nc(NCCc3c[nH]c4ccccc34)c3ncn(C(C)C)c3n2)c1 .
118

Item: CCc1c2c(nc3ccc(O)cc13)-c1cc3c(c(=O)n1C2)COC(=O)[C@]3(O)CC + CC(CO)NC(=O)c1cc(-c2ccc(Cl)cc2)nn(-c2cnn(C)c2)c1=O
36.8

Also, CCN(c1cc(-c2ccc(CN3CCOCC3)cc2)cc(C(=O)NCc2c(C)cc(C)[nH]c2=O)c1C)C1CCOCC1 + CC(CO)NC(=O)c1cc(-c2ccc(Cl)cc2)nn(-c2cnn(C)c2)c1=O please.
106

Try this compound next: Nc1ncn(C2CC(O)C(CO)S2)c(=O)n1 (centres undefined) + Cc1cncc(-c2nc(NCCc3c[nH]c4ccccc34)c3ncn(C(C)C)c3n2)c1
106

Another compound to look at: O=C(C=Cn1cnc(-c2cc(C(F)(F)F)cc(C(F)(F)F)c2)n1)NNc1cnccn1 + Cc1ccccc1N=Nc1ccc(NC(=O)c2ccnn2C)c(C)c1
93.4

Note, next up: O=C(C=Cn1cnc(-c2cc(C(F)(F)F)cc(C(F)(F)F)c2)n1)NNc1cnccn1 + Cc1cncc(-c2nc(NCCc3c[nH]c4ccccc34)c3ncn(C(C)C)c3n2)c1
94.8
